- Tested on: K-562 leukemia
- test details: NCI-60 one-dose screen, 48 h (100 = growth as untreated, 0 = no growth, -100 = all killed)
- setup conditions: 10 µM unless noted
The panel holds about 83,000 compounds, 20% with a hit somewhere; the sample as a whole holds those more often.
Please use Y whenever growth is not below 10%, and N whenever it is.

Here are 6 compounds together with their reported answers.
COc1ccc(-c2cn3c(ccc4ccccc43)n2)cc1
Y
CN1CCN(Cc2ccc(NC(=O)c3cncc(C#Cc4cnc(N)c5cccnc45)c3)cc2C(F)(F)F)CC1
N
COc1ccc(N(Cc2cc(OC)c(OC)c(OC)c2)C2OC(=O)c3ccccc32)cc1 (centres undefined)
Y
CCN(CC)CC(O)CNc1c2ccc([N+](=O)[O-])cc2nc2cc(OC)c(OC)cc12 (centres undefined)
N
CCOC(=O)c1c2c(n3ccc(NC(=O)CCN4CCOCC4)cc13)C(=O)c1ncccc1C2=O
Y
Clc1ccc(-c2nnc(COc3ccccc3Cl)o2)cc1
Y

Identify whether the reported growth of the following compound is 10% or greater: O=C(O)C(O)C(O)C(=O)O.[NH-]C1CCCCC1[NH-].[Pt+2] (centres undefined) Y

Moving on to "Cc1ccc2c(NCCCN(C)C)c3c(C)nn(C)c3nc2c1" N

Moving on to "COc1ccc(CNc2nccnn2)cc1" Y

Moving on to "CN[C@@]12CC3(C=CC(=O)C=C3)O[C@]1(Cc1ccc(OC)cc1)N(C)C(=O)N2" Y

Moving on to CCN(CC)CCCC(C)NCCCNc1cccc2cccnc12 (centres undefined) Y

Moving on to "CC/C(=C(\c1ccc(O)cc1)c1ccc(OCCN(C)CCN(C)C(=O)CCCCC(=O)c2c(C)[nH]c(/C=C3\N=C(c4ccc[nH]4)C=C3OC)c2C)cc1)c1ccccc1" Y

Moving on to "NS(=O)(=O)N(c1cc(C(F)(F)F)cc(C(F)(F)F)c1)C1CCN(Cc2ccc(F)cc2)CC1" Y

Cited source: PubChem BioAssay (NCI)
